- PROTOCOL: anti-His antibody binders, primary screen, artefact control for SMM control protein annotation, biochemical, small-molecule microarray, 635 nm fluorescence (AID 1128);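 further: score merges feature fluorescence with signal-to-noise for each printed compound spot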
- MEASUREMENT CONTEXT: anti-His Alexa647 antibody binding, higher = more signal
Give measured composite z-score for each item. Keep answers brief.

These recorded examples may help you get a feel for the data.
# COMPOUND, TEST RESULT
measured = [
    ("O=C1O[C@@H](c2ccccc2)[C@@H](c2ccccc2)N2[C@@H](c3ccc(OCCO)cc3)[C@]3(C(=O)Nc4ccccc43)[C@@H](C(=O)NC[C@H](O)c3ccccc3)[C@H]12", 0.87),
    ("CCCCCCC#C[Si](O[C@H](c1ccccc1)c1cn([C@H](CO)Cc2ccccc2)nn1)(C(C)C)C(C)C", 0.355),
    ("N#Cc1ccc(NN2C(C(O)c3c(F)cccc3Cl)C=CC3C(=O)N(c4ccccc4)C(=O)C32)cc1 (configuration not stated)", 2.29),
    ("C=CCN1C(=O)[C@]2(O[C@H](CCO)[C@@H]([Si](C)(C)c3ccc(OC)cc3)[C@@H]2C)c2cc(N3CCCCC3=O)ccc21", 1.74),
    ("COC(=O)c1c(CC[C@@H](CO)NC(=O)N2CCC[C@H]2Cn2cc(-c3ccccn3)nn2)oc(C(C)=O)c1C(=O)OC", 0.0014),
]

Could you tell me composite z-score for each of these compounds? They are listed below.
1. Cc1ccc(C(C)CC(O)C2C=CC3C(=O)N(C)C(=O)C3N2NC(=O)OC(C)(C)C)o1 (configuration not stated)
2. O=C1O[C@@H](c2ccccc2)[C@@H](c2ccccc2)N2[C@@H](c3ccccc3OCCO)[C@]3(C(=O)Nc4ccc(C#CC5=CCCCC5)cc43)[C@@H](C(=O)Nc3nc4ccccc4s3)[C@H]12

Response line:
1: 1.65; 2: 0.353
